# TARGET OR SYSTEM: UniProt:B2UM81
# Sequence (B2UM81 25-788): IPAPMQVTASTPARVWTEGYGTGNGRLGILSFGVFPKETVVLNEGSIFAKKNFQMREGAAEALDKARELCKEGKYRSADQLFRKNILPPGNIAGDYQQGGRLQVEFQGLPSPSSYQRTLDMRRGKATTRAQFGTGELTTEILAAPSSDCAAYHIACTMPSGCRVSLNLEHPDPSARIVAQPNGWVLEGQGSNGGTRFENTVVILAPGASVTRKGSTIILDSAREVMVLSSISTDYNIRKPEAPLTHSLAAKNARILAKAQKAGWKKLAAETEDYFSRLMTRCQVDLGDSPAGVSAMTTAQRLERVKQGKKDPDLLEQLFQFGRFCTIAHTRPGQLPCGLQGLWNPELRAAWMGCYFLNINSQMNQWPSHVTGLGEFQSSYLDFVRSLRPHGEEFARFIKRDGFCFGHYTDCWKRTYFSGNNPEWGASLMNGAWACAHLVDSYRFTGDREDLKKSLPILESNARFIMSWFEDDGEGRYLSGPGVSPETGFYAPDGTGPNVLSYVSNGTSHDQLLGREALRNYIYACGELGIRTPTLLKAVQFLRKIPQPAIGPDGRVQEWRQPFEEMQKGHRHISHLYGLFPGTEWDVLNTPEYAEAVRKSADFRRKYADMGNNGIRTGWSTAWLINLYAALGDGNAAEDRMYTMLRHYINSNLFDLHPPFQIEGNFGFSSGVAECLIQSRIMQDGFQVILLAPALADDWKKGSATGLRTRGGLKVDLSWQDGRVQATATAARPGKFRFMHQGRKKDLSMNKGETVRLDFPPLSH
pIC50: −log10 of the molar value.
MEASURED PROPERTY: pIC50

Query: Short answer please: pIC50, UniProt:B2UM81, entry C[C@@H]1NC[C@@H](O)[C@H](O)[C@@H]1O [DFJ, 1-Deoxyfuconojirimycin]
Response: > 4.27
